# TARGET_SYSTEM: CDK4/Cyclin D1 (Homo sapiens (Human), UniProt P11802)
# Sequence (P11802 whole entry): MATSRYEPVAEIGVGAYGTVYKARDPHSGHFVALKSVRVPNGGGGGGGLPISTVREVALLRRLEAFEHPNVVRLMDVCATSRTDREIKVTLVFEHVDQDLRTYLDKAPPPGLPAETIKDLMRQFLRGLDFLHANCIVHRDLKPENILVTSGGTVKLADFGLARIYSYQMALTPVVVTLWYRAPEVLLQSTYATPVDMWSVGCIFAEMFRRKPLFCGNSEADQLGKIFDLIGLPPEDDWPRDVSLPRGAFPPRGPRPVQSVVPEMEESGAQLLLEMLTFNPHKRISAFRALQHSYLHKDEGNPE
# Sequence (P24385 whole entry partner): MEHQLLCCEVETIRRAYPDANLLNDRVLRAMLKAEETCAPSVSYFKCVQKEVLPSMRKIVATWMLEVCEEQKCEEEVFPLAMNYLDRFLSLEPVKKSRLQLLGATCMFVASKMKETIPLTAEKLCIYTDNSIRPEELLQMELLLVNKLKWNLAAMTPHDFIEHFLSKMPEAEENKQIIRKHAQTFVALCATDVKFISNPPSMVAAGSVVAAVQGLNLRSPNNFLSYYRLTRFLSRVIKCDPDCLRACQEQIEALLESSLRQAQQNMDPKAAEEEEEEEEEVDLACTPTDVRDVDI
# ASSAY_PROTOCOL: CDK4/Cyclin D1 biochemical assay (TR-FRET)
# SETUP_CONDITIONS: 1 mM ATP, 0.15 μM Rb (Ser780)-biotin substrate
pIC50: −log10 of the molar value.
Assign rule met whenever pIC50 does not fall below 8; assign rule not met whenever it does.

CN(C)C(=O)c1cc2cnc(N[C@@H]3CCOC[C@H]3O)nc2n1-c1ccc2c(c1)C(F)(F)CCC2N(C)C (stereo partly drawn) : rule met

pIC50 >= 8 for CC(C)n1c(C(C)(C)O)nc2c(F)cc(-c3nc(N[C@@H]4CCOC[C@H]4O)ncc3Cl)cc21 [Example A94 in WO2019207463, reference compound] ?
rule met

pIC50 >= 8 for CN(C)C(=O)c1cc2cnc(N[C@@H]3CCOC[C@H]3O)nc2n1-c1ccc2c(c1)CCC2N(C)C (stereo partly drawn) ?
rule not met

pIC50 >= 8 for CN(C)Cc1ccc(-n2c(C(=O)N(C)C)cc3cnc(N[C@@H]4CCOC[C@H]4O)nc32)cc1Cl ?
rule not met

pIC50 >= 8 for CN(C)C(=O)c1cc2cnc(N[C@@H]3CCOC[C@H]3O)nc2n1C1CCCC1 ?
rule not met

pIC50 >= 8 for CN1CCc2cc(-n3c(C(=O)N(C)C)cc4cnc(N[C@@H]5CCOC[C@H]5O)nc43)ccc2C1 ?
rule not met

pIC50 >= 8 for Cc1ccc(-n2c(C(=O)N(C)C)cc3cnc(N[C@@H]4CCOC[C@H]4O)nc32)cc1 ?
rule not met

pIC50 >= 8 for CN(C)Cc1ccc(-n2c(C(=O)N(C)C)cc3cnc(N[C@@H]4CCOC[C@H]4O)nc32)cc1 ?
rule not met

pIC50 >= 8 for CN(C)C(=O)c1cc2cnc(N[C@@H]3CCOC[C@H]3O)nc2n1-c1ccc2c(c1)C1(CC1)CC2N(C)C (stereo partly drawn) ?
rule not met

pIC50 >= 8 for CN(C)Cc1ccc(-n2c(C(=O)N(C)C)cc3cnc(N[C@@H]4CCOC[C@H]4O)nc32)cc1F ?
rule not met

====

# TARGET_SYSTEM: CDK4/Cyclin D1 (Homo sapiens (Human), UniProt P11802)
# ASSAY_PROTOCOL: CDK4/Cyclin D1 biochemical assay (TR-FRET)
# SETUP_CONDITIONS: 1 mM ATP, 0.15 μM Rb (Ser780)-biotin substrate
# note: exactly 9 nM is not below, so it is -1; use 1 for IC50 strictly under it

Worked cases, answers included:
CN(C)Cc1ccc(-n2c(C(=O)N(C)C)cc3cnc(N[C@@H]4CCOC[C@H]4O)nc32)cc1C(F)(F)F : 1
CN(C)C(=O)c1cc2cnc(N[C@@H]3CCOC[C@H]3O)nc2n1-c1ccc2c(c1)CCCC2N(C)C (some centres unmarked) : -1
CN(C)Cc1ccc(-n2c(C(=O)N(C)C)cc3cnc(N[C@@H]4CCOC[C@H]4O)nc32)cc1C1CC1 : -1

# ---- query compound ----
Does the reported IC50 of CN(C)C(=O)c1cc2cnc(N[C@@H]3CCOC[C@H]3O)nc2n1-c1ccc2c(c1)C1(CCC2N(C)C)CC1 (some centres unmarked) stay below 9 nM?
-1

The measured values listed here are drawn from patent US20250066372A1.
